# Test system: SNB-19 CNS
# assay-details: NCI tumour cell line growth inhibition, 48 h
TGI reference

compound	TGI
C=C(COC(=O)C(C)C)[C@H]1Oc2ccc(C(C)=O)cc2[C@@H]1OC(=O)C(C)C	> 100 µM

The recorded TGI for O=[N+]([O-])c1cc(Cl)ccc1S(=O)(=O)c1cc(Cl)cc2c1NCCC2 is > 100 µM

The recorded TGI for Cc1ccc(Nc2ccc(Nc3ccc(C)cc3S(=O)(=O)O)c3c2C(=O)c2ccccc2C3=O)c(S(=O)(=O)O)c1 is > 100 µM

The recorded TGI for COc1cc(C)cc(OC)c1/C=C/C(=O)O is > 100 µM

The recorded TGI for Clc1ccc(Nc2nc3ccccc3c3occc23)cc1 is 16.2 µM

The recorded TGI for COC1=C(OC)C(=O)C(Cc2c(Cl)nc3n2CCS3)=C(C)C1=O is 33.1 µM

The recorded TGI for C/C(=C/c1c(C)[nH]c(=O)[nH]c1=O)C(=O)O is > 1370 µM

The recorded TGI for C[C@@]12CCC[C@@](C)(C(=O)O)C1CC[C@@]13CC(=O)[C@@](CO)(CCC12)C3 (some centres not stated) is > 100 µM

The recorded TGI for COc1ccc(Nc2c[nH]c(=O)[nH]c2=O)cc1 is > 100 µM

The recorded TGI for Oc1ccc(-c2nc3ccc4[nH]ncc4c3c3c2CCCC3)c2cccnc12 is 13.1 µM

The recorded TGI for CCCCc1nc2cc(/C=C/C(=O)NO)ccc2n1CCN(CC)CC is 12.2 µM

The recorded TGI for CC(CN(C)C)C(=O)/C=C/c1ccc(Cl)c(Cl)c1 (configuration not stated) is 19.7 µM

The recorded TGI for CC(C)C[C@H](NC(=O)[C@H](CCc1ccccc1)NC(=O)c1ccc2ccccc2n1)B(O)O is 13.1 µM

The recorded TGI for COC(=O)c1ccccc1N=Cc1ccc(N(CCC#N)S(=O)(=O)c2ccccc2)cc1 is > 100 µM

The recorded TGI for C=C1C(=O)O[C@H]2[C@H]1CC/C(COC(=O)C(=O)c1cn(C)c3ccc(OC)cc13)=C\CC[C@@]1(C)O[C@@H]21 is 21.8 µM

The recorded TGI for O=C1C(CN2CCCC2)CCCC1CN1CCCC1 (configuration not stated) is > 100 µM

The recorded TGI for O=C1OC(C(O)C(O)C(O)CO)C(O)C1O (configuration not stated) is > 100 µM

The recorded TGI for Cc1ccc(N(C(=O)CC(=O)N2N=C(c3ccccc3)C(N=Nc3ccc([N+](=O)[O-])cc3)C2=O)C(=O)c2ccc(Cl)cc2)cc1 (configuration not stated) is 60.1 µM

====

# System: K-562 leukemia
# assay-details: NCI tumour cell line growth inhibition, 48 h; in the data active = GI50 below about 0.43 µM; inactive = the rest
Select the correct class. Options are active, inactive and nothing else.

Illustrative cases are given below, each with its answer.
compound	qualitative-label
CC(C)c1ccc(O)c(=O)cc1	inactive
COc1ccc(-c2[nH]ncc2-c2cc(OC)c(OC)c(OC)c2)cc1	active
NCC(=O)CCC(=O)O	inactive
COC(=O)[C@H](Cc1ccccc1)NC(=O)[C@@H](OC)[C@@H]1Cc2cc3cc(OC4CC(OC5CC(O)C(O)C(C)O5)C(O)C(C)O4)c(C)c(O)c3c(O)c2C(=O)[C@H]1OC1CC(OC2CC(OC3CC(C)(O)C(O)C(C)O3)C(O)C(C)O2)C(O)C(C)O1 (stereo partly drawn)	active
CC12CCC(O)CC1CCC1C2CCC2(C)C(C3=CC(=O)OC3)CCC12 (stereo not drawn)	inactive
COC1CCC(n2c([C@@H]3CCCC(=O)N3c3ccc(F)c(F)c3)nc3cc(-c4c(C)noc4C)ccc32)CC1 (stereo partly drawn)	inactive
O=C(Nc1ccccc1F)c1ccc(NC2=C(Cl)C(=O)N(Cc3ccccc3)C2=O)cc1	inactive
COC(=O)c1cc2c(cc1Cl)SC(N(N(C)C)S(=O)(=O)c1ccc(Cl)cc1)=NS2(=O)=O	inactive

Assay result, entry C#CC#CC#CC#CC#CC#CC#CC#CCC1OC[C@H](COC(=O)O[C@@H](C(=O)O[C@H]2C[C@@]3(O)[C@@H](OC(=O)c4ccccc4)[C@@H]4[C@]5(OC(C)=O)CO[C@@H]5C[C@H](O)[C@@]4(C)C(=O)[C@H](OC(C)=O)C(=C2C)C3(C)C)[C@@H](NC(=O)c2ccccc2)c2ccccc2)O1 (stereo partly drawn) — outcome?
active

Assay result, entry CCOC(=O)c1cnc2c(cnn2CC)c1NN=C(C)C — outcome?
inactive

Assay result, entry COc1cc2c3c(n(C)c(=O)c2cc1OC)-c1cc2c(cc1/C3=C\[C@@H](N)CCCCN)OCO2 — outcome?
inactive

Assay result, entry Nc1c(O)c(S(=O)(=O)O)c(O)c2c1C(=O)c1ccccc1C2=O — outcome?
inactive

Assay result, entry c1ccc2c(c1)ccc1c3ccccc3ccc21 — outcome?
inactive

====

# Test system: SK-MEL-28 melanoma
# assay-details: NCI tumour cell line growth inhibition, 48 h; in the data active means GI50 below about 0.43 µM; inactive means the rest
Select the correct class. Options are yes for active, no for inactive and nothing else.

compound	target-under-test	qualitative-label
Nc1nc(Nc2ccc3c(c2)CCC(N2CCCC2)CC3)nn1-c1cc2c(nn1)-c1ccccc1CCC2 (stereo not drawn)	SK-MEL-28 melanoma	no

Assay result, entry COC(=O)[C@]12CC[C@@H](C)[C@H](C)[C@@H]1C1=CC[C@@H]3[C@@]4(C)C=C(O)C(=O)C(C)=C4CC[C@@]3(C)[C@]1(C)CC2 — outcome?
no

Assay result, entry CCCCc1nc2cc(/C=C/C(=O)NO)ccc2n1CCN(CC)CC — outcome?
yes

Assay result, entry CC(=O)OC1=C2C(CC3C4CC=C5CC(OC(C)=O)CCC5(C)C4CCC23C)C2C(=O)N(Cc3ccccc3)C(=O)C2C1 (stereo not drawn) — outcome?
no

Assay result, entry Oc1ccc(-c2nc3ccc4[nH]ncc4c3c3c2CCCC3)c2cccnc12 — outcome?
no

Assay result, entry COc1ccc(-c2[nH]ncc2-c2cc(OC)c(OC)c(OC)c2)cc1 — outcome?
yes

Assay result, entry Cc1ccc(-n2c(-c3ccc(Cl)cc3)cs/c2=N\NC(=O)COc2n[nH]c(=O)c3ccccc23)cc1 — outcome?
no

Assay result, entry CC(C)(C)n1cc(-c2ccnc(NCCNS(=O)(=O)c3cccc4ccccc34)c2)c(-c2cccc(F)c2)n1 — outcome?
no

====

# Tested on: OVCAR-3 ovarian
# assay-details: NCI tumour cell line growth inhibition, 48 h
measured-attribute: TGI

Sample records with TGI:
compound	measured-attribute	readout-value
OC(C(=Nc1ccccc1)c1ccccc1)c1ccccc1 (stereo unspecified)	TGI	14.3 µM
O=c1c(S(=O)(=O)Oc2ccccc2)coc2cc(F)ccc12	TGI	> 100 µM
CCC(C)CC(CC)NCCN1CCN(C(CC)CC(C)CC)C1=S (stereo unspecified)	TGI	4.08 µM
O=c1cc2cc(O)[nH]c(=O)c2c(O)[nH]1	TGI	> 100 µM
Oc1ccc(SCc2ccc(NCc3ccccc3)cc2)cc1	TGI	> 100 µM

The recorded TGI for CCOC(=O)C1(C(=O)OCC)CC=C(C)CC12C(=O)Nc1ccccc12 (stereo unspecified) is > 100 µM

The recorded TGI for O=C(CCC(=O)OCC1OC(O)(CC2OC(CO)C(O)C(O)C2O)C(O)C1O)OCc1ccccc1 (stereo unspecified) is > 100 µM

The recorded TGI for Cc1csc2n(C)c(=O)c3ccccc3[n+]12 is > 100 µM

The recorded TGI for CCOC(=O)c1ccc(NC(NC(=O)CC)(C(F)(F)F)C(F)(F)F)cc1 is > 100 µM

The recorded TGI for CC1CN=C(N(C)C(=O)Nc2ccc(Cl)c(Cl)c2)S1 (stereo unspecified) is > 100 µM

The recorded TGI for Cc1ccc(NC(=O)CC(=O)N2N=C(c3ccccc3)C(N=Nc3ccc(S(=O)(=O)CCOS(=O)(=O)O)cc3)C2=O)cc1 (stereo unspecified) is > 100 µM

====

GI50 reference
# System: NCI-H23 lung
# assay-details: NCI tumour cell line growth inhibition, 48 h

Sample records with GI50:
compound	target-under-test	GI50
CCCCc1nc2cc(/C=C/C(=O)NO)ccc2n1CCN(CC)CC	NCI-H23 lung	0.452 µM
Clc1ccc(-c2cn(-c3ccccc3)c(-c3ccccc3)n2)c(Cl)c1	NCI-H23 lung	> 16.2 µM
COC(=O)c1cc2c(cc1Cl)SC(N(N(C)C)S(=O)(=O)c1ccc(Cl)cc1)=NS2(=O)=O	NCI-H23 lung	19.7 µM
CCCCC#Cc1cccc(=O)o1	NCI-H23 lung	8.98 µM
COC(=O)[C@H](Cc1ccccc1)NC(=O)[C@@H](OC)[C@@H]1Cc2cc3cc(OC4CC(OC5CC(O)C(O)C(C)O5)C(O)C(C)O4)c(C)c(O)c3c(O)c2C(=O)[C@H]1OC1CC(OC2CC(OC3CC(C)(O)C(O)C(C)O3)C(O)C(C)O2)C(O)C(C)O1 (stereo not given in full)	NCI-H23 lung	0.0106 µM
C[C@@]12CCC[C@@](C)(C(=O)O)C1CC[C@@]13CC(=O)[C@@](CO)(CCC12)C3 (stereo not given in full)	NCI-H23 lung	> 100 µM
CC(C)c1ccc(O)c(=O)cc1	NCI-H23 lung	17.2 µM
CC(=O)OC1=C2C(CC3C4CC=C5CC(OC(C)=O)CCC5(C)C4CCC23C)C2C(=O)N(Cc3ccccc3)C(=O)C2C1 (stereo not given)	NCI-H23 lung	16.6 µM
C=C1C(=O)O[C@H]2[C@H]1CC(=O)/C(C)=C\CC[C@@]1(C)O[C@@H]21	NCI-H23 lung	3.94 µg/mL

# evaluate next
The recorded GI50 for CC1(C)CC[C@]2(C(=O)O)CC[C@]3(C)[C@H](CC[C@@H]4[C@@]5(C)CCC(=O)C(C)(C)[C@@H]5CC[C@]43C)[C@H]2[C@H]1OC(=O)C(F)(F)F is 11 µM
